So I've got a bunch of binders here, and I need their TRF signal values.
Target: trypsin
Test: TRF, 10 ug/mL Fab on trypsin
Give bare numbers.

Completed entries (count: 4):
• KB_A06 Fab (Fab, V domains shown) VH: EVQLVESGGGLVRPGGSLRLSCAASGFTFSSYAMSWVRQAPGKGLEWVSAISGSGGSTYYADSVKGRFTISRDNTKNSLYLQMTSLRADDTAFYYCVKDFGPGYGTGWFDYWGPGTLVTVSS VL: AVNWYQQLPGKAPKLLIYAAVRCPRILMRCKQDSDCLAGCVCGPNGFCGTPSGIPERFSGSIDRSTNSASLTISGLKTEDEADYYCQSYDSSNLNWVFGGGTKLTVLG = 242000
• KB_A01 Fab (Fab, V domains shown) VH: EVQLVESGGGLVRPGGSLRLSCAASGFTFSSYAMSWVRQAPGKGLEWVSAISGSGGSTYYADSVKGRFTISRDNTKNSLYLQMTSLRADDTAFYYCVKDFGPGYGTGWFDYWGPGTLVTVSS VL: YLNWYQQKPGKAPKLLIYAAEVCPRILMRCKQDSDCLAGCVCGPNGFCGGTSGVPSRFSGSRSGTEFTLTISSLQPEDFATYYCQKVDDYPLTFGGGTKVEIKR = 55600
• KB_C10 Fab (Fab, V domains shown) VH: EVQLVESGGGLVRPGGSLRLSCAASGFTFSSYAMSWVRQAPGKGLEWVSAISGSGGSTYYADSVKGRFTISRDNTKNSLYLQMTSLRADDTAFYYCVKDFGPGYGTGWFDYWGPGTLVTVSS VL: AVNWYQQLPGKAPKLLIYAAGPCPRILMRCKQDSDCLAGCVCGPNGFCGADSGVSDRFSGSKSGTSASLAITGLQAEDEGDYYCAAWDDSLNGLVFGGGTKVTVLG = 238000
• KB_A10 Fab (Fab, V domains shown) VH: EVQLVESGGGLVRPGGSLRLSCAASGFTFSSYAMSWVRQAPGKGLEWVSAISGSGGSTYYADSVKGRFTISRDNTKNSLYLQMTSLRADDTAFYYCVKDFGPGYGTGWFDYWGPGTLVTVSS VL: AVNWYQQLPGKAPKLLIYAAGGCPRILMRCKQDSDCLAGCVCGPNGFCGSNSGVPDRFSGSKSGNTASLTISGLQSEDEADYYCAAWDDSLSGVVFGGGTQLTVLG = 68700

Batch request: TRF signal for each of the following binders.
1. KB_A11 Fab (Fab, V domains shown) VH: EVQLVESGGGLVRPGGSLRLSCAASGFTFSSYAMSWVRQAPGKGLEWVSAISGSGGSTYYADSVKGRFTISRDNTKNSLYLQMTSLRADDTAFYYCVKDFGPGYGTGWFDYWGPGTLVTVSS VL: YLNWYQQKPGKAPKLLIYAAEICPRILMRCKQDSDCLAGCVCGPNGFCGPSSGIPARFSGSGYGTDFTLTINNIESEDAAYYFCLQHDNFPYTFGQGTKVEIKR
2. KB_A05 Fab (Fab, V domains shown) VH: EVQLVESGGGLVRPGGSLRLSCAASGFTFSSYAMSWVRQAPGKGLEWVSAISGSGGSTYYADSVKGRFTISRDNTKNSLYLQMTSLRADDTAFYYCVDFGPGYGTGWFDYWGPGTLVTVSS VL: AVNWYQQLPGKAPKLLIYAADKCPRILMRCKQDSDCLAGCVCGPNGFCGGGSGIPERFSGSKSGTSASLAISGLRSEDEADYYCATWDDNLNGVVFGGGTKLTVLG
3. KB_B01 Fab (Fab, V domains shown) VH: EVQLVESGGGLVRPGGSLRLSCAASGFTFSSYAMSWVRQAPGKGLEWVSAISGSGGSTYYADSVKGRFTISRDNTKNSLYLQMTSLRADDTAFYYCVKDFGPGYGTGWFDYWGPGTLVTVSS VL: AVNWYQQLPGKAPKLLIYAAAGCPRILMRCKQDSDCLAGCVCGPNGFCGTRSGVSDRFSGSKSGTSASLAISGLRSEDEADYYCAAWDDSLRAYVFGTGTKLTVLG
4. KB_C07 Fab (Fab, V domains shown) VH: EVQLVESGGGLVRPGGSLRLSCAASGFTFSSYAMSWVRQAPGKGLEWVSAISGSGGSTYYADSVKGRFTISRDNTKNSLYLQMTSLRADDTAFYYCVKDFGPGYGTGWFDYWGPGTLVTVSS VL: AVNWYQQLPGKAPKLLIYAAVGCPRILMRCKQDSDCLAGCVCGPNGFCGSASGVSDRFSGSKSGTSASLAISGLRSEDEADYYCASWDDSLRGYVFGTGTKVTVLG
5. KB_B02 Fab (Fab, V domains shown) VH: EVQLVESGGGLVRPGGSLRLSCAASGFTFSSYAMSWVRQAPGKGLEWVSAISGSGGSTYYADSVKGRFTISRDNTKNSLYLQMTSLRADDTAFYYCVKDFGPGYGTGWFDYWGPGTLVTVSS VL: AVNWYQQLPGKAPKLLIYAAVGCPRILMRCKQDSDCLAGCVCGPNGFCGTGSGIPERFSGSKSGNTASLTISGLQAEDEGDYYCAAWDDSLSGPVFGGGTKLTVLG
6. KB_A12 Fab (Fab, V domains shown) VH: EVQLVESGGGLVRPGGSLRLSCAASGFTFSSYAMSWVRQAPGKGLEWVSAISGSGGSTYYADSVKGRFTISRDNTKNSLYLQMTSLRADDTAFYYCVDFGPGYGTGWFDYWGPGTLVTVSS VL: AVNWYQQLPGKAPKLLIYAAGRCPRILMRCKQDSDCLAGCVCGPNGFCGANSGVSDRFSAAKSGTSASLAINGLRSEDEADYYCAAWDDSLNGYVFGTGTKLTVLG

[212000, 218000, 257000, 276000, 56600, 253000]
